What Activity was measured for each of the following?
- Tested on: Mus musculus
- measurement_notes: Toxicity in CD1 mouse assessed as haemoglobin level at 300 mg/kg, ip after 3 days
- Format: organism-based
- Design: dose 300 mg/kg, route intraperitoneal
- applied_conditions: in vivo, 72 h

Activity measured on CCCCOC(=O)N/N=C/C=C/c1ccc([N+](=O)[O-])o1 = 11.8 g/dL

Activity measured on CCCCCCOC(=O)N/N=C/C=C/c1ccc([N+](=O)[O-])o1 = 12 g/dL

Activity measured on CCCCCCCCOC(=O)N/N=C/C=C/c1ccc([N+](=O)[O-])o1 = 13.4 g/dL

* * *

- Test system: Trypanosoma cruzi
- measurement_notes: Growth inhibition of Trypanosoma cruzi Tulahuen 2 epimastigote at 5 uM after 5 days
- Type: functional
- applied_conditions: Trypanosoma cruzi, Tulahuen 2, 120 h; read-out: GI
Assign Yes whenever inhibition of growth at 5 µM does not fall below 80%; assign No whenever it does.

## Input Is the recorded value of inhibition of growth at 5 µM equal to or greater than 80% for this molecule? CCCCCCCCOC(=O)N/N=C/C=C/c1ccc([N+](=O)[O-])o1
## Output Yes

## Input Is the recorded value of inhibition of growth at 5 µM equal to or greater than 80% for this molecule? COCCNC(=O)N/N=C/c1ccc([N+](=O)[O-])o1
## Output No

## Input Is the recorded value of inhibition of growth at 5 µM equal to or greater than 80% for this molecule? CC1CS(=O)(=O)CCN1/N=C/c1ccc([N+](=O)[O-])o1 (centres undefined)
## Output No

## Input Is the recorded value of inhibition of growth at 5 µM equal to or greater than 80% for this molecule? CCCCCCOC(=O)N/N=C/c1ccc([N+](=O)[O-])o1
## Output Yes

## Input Is the recorded value of inhibition of growth at 5 µM equal to or greater than 80% for this molecule? CCCCOC(=O)N/N=C/C=C/c1ccc([N+](=O)[O-])o1
## Output Yes

## Input Is the recorded value of inhibition of growth at 5 µM equal to or greater than 80% for this molecule? CCCCCCCOC(=O)N/N=C/C=C/c1ccc([N+](=O)[O-])o1
## Output Yes

## Input Is the recorded value of inhibition of growth at 5 µM equal to or greater than 80% for this molecule? CCCCNC(=O)N/N=C/c1ccc([N+](=O)[O-])o1
## Output No

* * *

- Test system: Mus musculus
- measurement_notes: Toxicity in CD1 mouse assessed as glutamic-oxalacetate transaminase level at 450 mg/kg, po after 3 days
- Assay type: organism-based
- Set-up: dose 450 mg/kg, route oral
- applied_conditions: in vivo, 72 h
Hi! Just check whether Activity is below 90 IU/L. Below gives rule met, equal or above gives rule not met.

## Input In plain terms, does CCCCCCOC(=O)N/N=C/C=C/c1ccc([N+](=O)[O-])o1 come in under 90 IU/L for Activity?
## Output rule not met

## Input In plain terms, does CCCCCCCCOC(=O)N/N=C/C=C/c1ccc([N+](=O)[O-])o1 come in under 90 IU/L for Activity?
## Output rule met

## Input In plain terms, does CCCCCCCOC(=O)N/N=C/C=C/c1ccc([N+](=O)[O-])o1 come in under 90 IU/L for Activity?
## Output rule not met

## Input In plain terms, does CCCCCCCCOC(=O)N/N=C/c1ccc([N+](=O)[O-])o1 come in under 90 IU/L for Activity?
## Output rule not met

## Input In plain terms, does CCCCCCNC(=O)/C=C/c1ccc([N+](=O)[O-])o1 come in under 90 IU/L for Activity?
## Output rule met

## Input In plain terms, does CCCCCCNC(=O)N/N=C/C=C/c1ccc([N+](=O)[O-])o1 come in under 90 IU/L for Activity?
## Output rule not met

* * *

- Tested on: Mus musculus
- measurement_notes: Toxicity in CD1 mouse assessed as leukocyte level at 300 mg/kg, ip after 3 days
- Format: organism-based
- Design: dose 300 mg/kg, route intraperitoneal
- applied_conditions: in vivo, 72 h
reported_endpoint: Activity

Form: item CCCCCCCOC(=O)N/N=C/C=C/c1ccc([N+](=O)[O-])o1 ; test system Mus musculus; Activity: 11100 µL⁻¹

Form: item CCCCOC(=O)N/N=C/C=C/c1ccc([N+](=O)[O-])o1 ; test system Mus musculus; Activity: 31800 µL⁻¹

Form: item CC1CS(=O)(=O)CCN1/N=C/c1ccc([N+](=O)[O-])o1 (stereo not drawn) [NIFURTIMOX] ; test system Mus musculus; Activity: 5100 µL⁻¹

* * *

- Test system: Mus musculus
- measurement_notes: Toxicity in CD1 mouse lung at 300 mg/kg, ip after 3 days by histological study
- Type: organism-based
- Parameters: dose 300 mg/kg, route intraperitoneal
- applied_conditions: in vivo, 72 h
reported_endpoint: Activity

Below, 4 compounds whose answers are already recorded.
- CCCCNC(=O)N/N=C/c1ccc([N+](=O)[O-])o1: Non-toxic
- CCCCCCCOC(=O)N/N=C/C=C/c1ccc([N+](=O)[O-])o1: Non-toxic
- CCCCCCNC(=O)N/N=C/C=C/c1ccc([N+](=O)[O-])o1: Non-toxic
- CCCCCCCCOC(=O)N/N=C/C=C/c1ccc([N+](=O)[O-])o1: Non-toxic

Activity measured on CCCCCCOC(=O)N/N=C/c1ccc([N+](=O)[O-])o1 = Non-toxic

* * *

- Tested on: Mus musculus
- measurement_notes: Toxicity in CD1 mouse lung at 450 mg/kg, po after 3 days by histological study
- Assay type: organism-based
- Set-up: dose 450 mg/kg, route oral
- applied_conditions: in vivo, 72 h
reported_endpoint: Activity

Below, 5 molecules whose answers are already recorded.
- CCCCCCCCOC(=O)N/N=C/C=C/c1ccc([N+](=O)[O-])o1: Non-toxic
- CCCCNC(=O)N/N=C/c1ccc([N+](=O)[O-])o1: Non-toxic
- CCCCCCOC(=O)N/N=C/c1ccc([N+](=O)[O-])o1: Non-toxic
- CCCCCCNC(=O)N/N=C/C=C/c1ccc([N+](=O)[O-])o1: Non-toxic
- CCCCCCOC(=O)N/N=C/C=C/c1ccc([N+](=O)[O-])o1: Non-toxic

Attention now shifts to the item below.
Activity measured on CCCCCCNC(=O)/C=C/c1ccc([N+](=O)[O-])o1 = Toxic
